# ASSAY COMMENT: xn = mol fraction of the nth substance listed, in the solute-free solvent
# EXPERIMENTAL SETUP: 288.15 K; x2 = 0.4
ENDPOINT: solubility (g/100 g solution)

Field: example entries. Status: answers known.
Fill in: solubility (g/100 g solution) of Cc1nc(C)c(C)nc1C + CO + CC#N is ___
36.4

Quick one: solubility (g/100 g solution) for O=c1cc(-c2ccccc2)oc2cc(O)c(O)c(O)c12 + CCO + O ?
0.221

# lookup: solubility (g/100 g solution) of O=CC(O)C(O)C(O)CO (configuration not stated) + CO + ClCCl
1.81

Quick check: solubility (g/100 g solution) of O=CC(O)C(O)C(O)CO (configuration not stated) + CCO + ClCCl ?
1.26

Given Cl.NC(C=O)C(O)C(O)C(O)CO (configuration not stated) + O + CCO , state its recorded solubility (g/100 g solution).
0.658

I = Cl.NC(C=O)C(O)C(O)C(O)CO (configuration not stated) + O + CO
II = Cc1nc(C)c(C)nc1C + CCCCO + CC#N
# query: argmin of solubility (g/100 g solution) over I and II Answer by quoting the chosen item's label.
I
(I: 2.53, II: 33)

###

# ASSAY COMMENT: xn = mol fraction of the nth substance listed, in the solute-free solvent
# EXPERIMENTAL SETUP: 283.15 K; x2 = 0.2
ENDPOINT: solubility (g/100 g solution)

// worked examples, solubility (g/100 g solution) included
What solubility (g/100 g solution) value was documented for this compound, O=c1cc(-c2ccccc2)oc2cc(O)c(O)c(O)c12 + CCO + O ?
0.0427

Recorded solubility (g/100 g solution) for O=CC(O)C(O)C(O)CO (stereo not drawn) + CC(C)O + CCCCCC , please?
0.111

Quick one: solubility (g/100 g solution) of Cc1nc(C)c(C)nc1C + CO + CC#N ?
23.4

What does the data say about its solubility (g/100 g solution)? Entry: O=CC(O)C(O)C(O)CO (stereo not drawn) + CO + ClCCl
0.564

a = O=CC(O)C(O)C(O)CO (stereo not drawn) + CCO + CCCCCC
b = O=CC(O)C(O)C(O)CO (stereo not drawn) + CCO + ClCCl
c = Cc1nc(C)c(C)nc1C + CCCCO + CC#N
d = Cl.NC(C=O)C(O)C(O)C(O)CO (stereo not drawn) + O + CO
Order by solubility (g/100 g solution), ascending. Kindly provide the labels arranged according to the requested ordering.
a, b, d, c
(a: 0.0912, b: 0.374, d: 0.992, c: 23.4)

###

# ASSAY COMMENT: xn = mol fraction of the nth substance listed, in the solute-free solvent
# EXPERIMENTAL SETUP: 298.15 K; x2 = 0.8
ENDPOINT: solubility (g/100 g solution)

What measured solubility (g/100 g solution) goes with O=c1cc(-c2ccccc2)oc2cc(O)c(O)c(O)c12 + CCO + O ?
0.634

Param item = Cc1nc(C)c(C)nc1C + CO + CC#N ; retrieve measured solubility (g/100 g solution).
54.8

# solubility (g/100 g solution) lookup, item Cl.NC(C=O)C(O)C(O)C(O)CO (configuration not stated) + O + CO
13.9

Bench note: what solubility (g/100 g solution) did O=CC(O)C(O)C(O)CO (configuration not stated) + CO + ClCCl show?
13.4

I = Cl.NC(C=O)C(O)C(O)C(O)CO (configuration not stated) + O + CCO
II = Cc1nc(C)c(C)nc1C + CCCCO + CC#N
III = O=CC(O)C(O)C(O)CO (configuration not stated) + CCO + ClCCl
Highest solubility (g/100 g solution) first, then in falling order down to the smallest. Reply: labels, ordered per the request.
II, I, III

###

# ASSAY COMMENT: xn = mol fraction of the nth substance listed, in the solute-free solvent
# EXPERIMENTAL SETUP: 293.15 K; x2 = 0.4
ENDPOINT: solubility (g/100 g solution)

Some solved cases for reference:
I have this compound here, Cl.NC(C=O)C(O)C(O)C(O)CO (centres undefined) + O + CCO , and I need its recorded solubility (g/100 g solution).
0.736

What value of solubility (g/100 g solution) has been reported for the following compound? O=c1cc(-c2ccccc2)oc2cc(O)c(O)c(O)c12 + CCO + O
0.262

What measured solubility (g/100 g solution) goes with O=CC(O)C(O)C(O)CO (centres undefined) + CCO + CCCCCC ?
0.268

a = O=CC(O)C(O)C(O)CO (centres undefined) + CO + ClCCl
b = O=CC(O)C(O)C(O)CO (centres undefined) + CCO + ClCCl
Two entries are listed, a and b . Which one carries the higher solubility (g/100 g solution)? Give the label of your selection.
a
(a: 2.4, b: 1.55)

a = Cl.NC(C=O)C(O)C(O)C(O)CO (centres undefined) + O + CO
b = Cc1nc(C)c(C)nc1C + CCCCO + CC#N
Return label of the item with the larger solubility (g/100 g solution). Candidates: a , b . Answer by quoting the chosen item's label.
b

I = O=CC(O)C(O)C(O)CO (centres undefined) + CC(C)O + CCCCCC
II = Cc1nc(C)c(C)nc1C + CO + CC#N
Compare reported solubility (g/100 g solution) values for I and II . Which is lower? Lab log: write the label of the selected item as the result.
I

###

# ASSAY COMMENT: xn = mol fraction of the nth substance listed, in the solute-free solvent
# EXPERIMENTAL SETUP: 283.15 K; x2 = 0.6
ENDPOINT: solubility (g/100 g solution)

Need solubility (g/100 g solution) of Cl.NC(C=O)C(O)C(O)C(O)CO (stereo not drawn) + O + CCO , thanks.
2.21

1 = O=CC(O)C(O)C(O)CO (stereo not drawn) + CC(C)O + CCCCCC
2 = Cc1nc(C)c(C)nc1C + CCCCO + CC#N
Could you tell me which of these two has the smaller solubility (g/100 g solution) figure? First: 1 Second: 2 I would appreciate it if you answered with the label of your choice.
1
(1: 0.271, 2: 30.6)

###

# ASSAY COMMENT: xn = mol fraction of the nth substance listed, in the solute-free solvent
# EXPERIMENTAL SETUP: 308.15 K; x2 = 0.4
ENDPOINT: solubility (g/100 g solution)

Solved entries (count: 3):
State the recorded solubility (g/100 g solution) for this entry: Cl.NC(C=O)C(O)C(O)C(O)CO (stereo not given) + O + CCO
0.944

So what's the measured solubility (g/100 g solution) for this one? Cc1nc(C)c(C)nc1C + CCCCO + CC#N
48.5

What value of solubility (g/100 g solution) has been recorded for this entry: Cl.NC(C=O)C(O)C(O)C(O)CO (stereo not given) + O + CO
3.51

A = O=c1cc(-c2ccccc2)oc2cc(O)c(O)c(O)c12 + CCO + O
B = Cc1nc(C)c(C)nc1C + CO + CC#N
Form: Entry with minimum solubility (g/100 g solution) (choose one): A / B To answer, give the label that identifies your chosen option.
A

###

# ASSAY COMMENT: xn = mol fraction of the nth substance listed, in the solute-free solvent
# EXPERIMENTAL SETUP: 303.15 K; x2 = 0.7
ENDPOINT: solubility (g/100 g solution)

Field request: solubility (g/100 g solution) | item: O=CC(O)C(O)C(O)CO (configuration not stated) + CCO + ClCCl
4.72

Need solubility (g/100 g solution) of Cc1nc(C)c(C)nc1C + CCCCO + CC#N , thanks.
44.8

# lookup: solubility (g/100 g solution) of O=CC(O)C(O)C(O)CO (configuration not stated) + CO + ClCCl
12.7

# get_value(readout='solubility (g/100 g solution)', item= Cl.NC(C=O)C(O)C(O)C(O)CO (configuration not stated) + O + CCO )
6.46

Which solubility (g/100 g solution) is reported for this molecule? Cc1nc(C)c(C)nc1C + CO + CC#N
59

I = O=CC(O)C(O)C(O)CO (configuration not stated) + CCO + CCCCCC
II = O=CC(O)C(O)C(O)CO (configuration not stated) + CC(C)O + CCCCCC
Of the two listed items, I and II , which carries the larger solubility (g/100 g solution) figure? In your reply, give the label of the chosen option.
I

###

# ASSAY COMMENT: xn = mol fraction of the nth substance listed, in the solute-free solvent
# EXPERIMENTAL SETUP: 298.15 K; x2 = 0.1
ENDPOINT: solubility (g/100 g solution)

Example entries begin here.
So what does the record say about solubility (g/100 g solution) for O=CC(O)C(O)C(O)CO (centres undefined) + CCO + ClCCl ?
0.264

Quick one: solubility (g/100 g solution) for Cc1nc(C)c(C)nc1C + CO + CC#N ?
28.9

A = Cc1nc(C)c(C)nc1C + CCCCO + CC#N
B = O=CC(O)C(O)C(O)CO (centres undefined) + CO + ClCCl
Lab note: record which item had the higher solubility (g/100 g solution), A or B . Could you answer with the label of the item you picked?
A
(A: 29.5, B: 0.281)
